- Tested on: K562
- Procedure text: NCI tumour cell line growth inhibition, 48 h
Active and inactive are the calls of the source. Cut-off read from the data, not from the text of the source: active = GI50 up to about 1.1 µM and inactive = higher.
// one of active, inactive, no free text

C=C(Br)C(Br)(CCl)CCC(Cl)C(C)C.C=C(Cl)C(Br)(CCl)CCC(Cl)C(C)C (stereo not given)
active
CCOC(=O)Nc1ccc(S(=O)(=O)NCCCl)cc1.CCOC(=O)Nc1ccc(S(=O)(=O)NCCCl)cc1.O=C(O)c1ccc(/N=N/Cl)cc1O
inactive
CSc1c(C#N)c(O)n(-c2ccc(Cl)cc2)c(=O)c1C#N
inactive

Asked: I would be grateful if you could indicate the recorded call for CCOC(=O)c1cc2c(=Cc3ccc(N(C)C)cc3)c3ccccc3n2[n+]1C .
Given back: active

Asked: I would be grateful if you could indicate the recorded call for CCN1C(=O)c2ccccc2C1(O)c1ccc(Cl)cc1 (stereo not given) .
Given back: inactive

Asked: I would be grateful if you could indicate the recorded call for C/C(=C\COc1ccc2ccc(=O)oc2c1)C1=CC(=O)C(C)(C)O1 [GEIPARVARIN] .
Given back: inactive

Asked: I would be grateful if you could indicate the recorded call for NC(=O)c1nc(-c2ccc(Cl)c(Cl)c2)nc2ccccc12 .
Given back: inactive
